Provide the recorded GI50 for the entries that follow.
# System: human exocrine pancreatic cancer (BxPC-3)
# assay.explanation: Cytotoxicity assay (WST-8), BxPC-3
# Assay type: cell-based
# measurement.conditions: Homo sapiens, BXPC-3; Table 1; read-out: Activity against human exocrine pancreatic tumor BxPC-3 (GI50) (converted)
Output should be the measured figure followed by the unit it is expressed in.

The cases that follow already have their GI50 on record.
CC(C)c1cc2c(cc1O)[C@@]1(C)CCCC(C)(C)C1CC2O (some centres unmarked) [Compound 15, 7-hydroxyferruginol] = 74.7 µM
CC(C)C1=C(O)C(=O)C2=C(CC[C@H]3C(C)(C)CCC[C@]23C)C1=O = 51 µM
CC(C)c1cc2ccc3c(c2cc1O)CCCC3(C)C [Compound 17, 12-hydroxy simonellite] = 36.4 µM
CC(C)c1cc2c(cc1O)[C@@]1(C)CCCC(C)(C)C1C=C2 (some centres unmarked) [Compound 16, 6,7-dehydroferruginol] = 37.5 µM
CC(C)c1cc2c(c(O)c1O)[C@@]1(C)CCCC(C)(C)C1=C(O)C2=O = 37.3 µM
CC(C)c1cc2c(cc1O)[C@@]1(C)CCCC(C)(C)C1=C(O)C2=O = 25 µM
CC(C)c1cc2c(c(O)c1O)[C@@]1(C)CCCC(C)(C)[C@@H]1CC2=O [Compound 12, 11-hydroxysugiol] = 45 µM

// query Output GI50 of CC(C)c1cc2c(cc1O)[C@@]1(C)CCCC(C)(C)[C@@H]1C[C@H]2CC1=CCC(O)(C(C)C)CC1 (some centres unmarked)
// result 87.3 µM
